System: SNU-C4 HiBiT-PXR KI cells
Assay: Cytotoxicity, CellTiter-Glo Luminescent Cell Viability Assay
Format: cell-based
Conditions: read-out: 72 h CC50; Table 3; 72 h treatment
# reported CC50; entries follow

Short answer for COc1cc(OCCCCCCOCCCCCOCCCCCC(=O)N[C@H](C(=O)N2C[C@H](O)C[C@H]2C(=O)NCc2ccc(-c3scnc3C)cc2)C(C)(C)C)c(C)cc1-n1nnc(S(=O)(=O)c2ccc(C(C)(C)C)cc2)c1C : CC50 was > 30 µM

Short answer for COc1cc(OCCCCCCCC(=O)N[C@H](C(=O)N2C[C@H](O)C[C@H]2C(=O)NCc2ccc(-c3scnc3C)cc2)C(C)(C)C)c(C)cc1-n1nnc(S(=O)(=O)c2ccc(C(C)(C)C)cc2)c1C : CC50 was > 30 µM

# ---- query molecule ----
Short answer for COc1cc(OCCCC(=O)N[C@H](C(=O)N2C[C@H](O)C[C@H]2C(=O)NCc2ccc(-c3scnc3C)cc2)C(C)(C)C)c(C)cc1-n1nnc(S(=O)(=O)c2ccc(C(C)(C)C)cc2)c1C : CC50 was > 30 µM

Data provenance is patent US12516051B1.
